- Assay System: C-Raf kinase (SEQ. ID NO: 3) (Homo sapiens (Human), UniProt P04049, Y340D/Y341D)
- Sequence (P04049 307-648 Y340D/Y341D): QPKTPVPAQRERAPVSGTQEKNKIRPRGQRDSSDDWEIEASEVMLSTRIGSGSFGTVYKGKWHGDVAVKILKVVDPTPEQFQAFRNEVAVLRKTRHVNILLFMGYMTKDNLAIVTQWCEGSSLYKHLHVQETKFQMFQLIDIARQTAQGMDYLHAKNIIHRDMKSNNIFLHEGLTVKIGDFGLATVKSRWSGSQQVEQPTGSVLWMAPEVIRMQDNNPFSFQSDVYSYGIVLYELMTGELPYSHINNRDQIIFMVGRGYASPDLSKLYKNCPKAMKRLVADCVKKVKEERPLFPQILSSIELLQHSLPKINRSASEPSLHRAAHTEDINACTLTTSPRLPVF
- Test Summary: Biochemical Assay for C-Raf (1)
- Condition Set: Table J, assay version (1); read-out: CRAF (1) IC50
pIC50: −log10 of the molar value.
Quantity: pIC50

Use the examples below as a reference point.
INPUT: Item Cc1ccc(NC(=O)c2ccnc(C(C)(C)C#N)c2)cc1-c1cnnc(-c2ccnc(NC(=O)C3CC3)c2)c1 [Example 230] has what recorded pIC50?
OUTPUT: ≥ 7.00

INPUT: Item Cc1ccc(NC(=O)c2ccnc(C3(C#N)CC3)c2)cc1-c1nccc(-c2ccnc(NC(=O)C3CC3)c2)n1 [Example 187] has what recorded pIC50?
OUTPUT: ≥ 7.00

INPUT: Item CNC(=O)c1cc(-c2cnnc(-c3cc(NC(=O)c4ccnc(C(F)F)c4)ccc3C)c2)ccn1 [Example 327] has what recorded pIC50?
OUTPUT: ≥ 7.00

INPUT: Item CNC(=O)c1cc(-c2cncc(-c3cc(C(=O)Nc4cnn(C(C)C)c4)ccc3C)n2)ccn1 [Example 81] has what recorded pIC50?
OUTPUT: 6.30 to 7.00

Others:
INPUT: Item Cc1ncc(NC(=O)c2ccnc(C(C)(C)C#N)c2)cc1-c1cccc(-c2ccnc(NC(=O)C3CC3)c2)n1 [Example 172] has what recorded pIC50?
OUTPUT: ≥ 7.00

INPUT: Item Cc1ncc(NC(=O)C2CCOC2)cc1-c1cccc(-c2cc(NC(=O)C3CC3)ncn2)c1 (stereo not drawn) [Example 352] has what recorded pIC50?
OUTPUT: 5.00 to 6.00

INPUT: Item COCCNc1cc(-c2cncc(-c3cc(NC(=O)c4ccnc(C(C)(C)C#N)c4)ccc3C)n2)ccn1 [Example 143] has what recorded pIC50?
OUTPUT: ≥ 7.00

INPUT: Item COCC(=O)Nc1cc(-c2cncc(-c3cc(NC(=O)c4ccnc(C(F)(F)F)c4)ccc3C)n2)ccn1 [Example 99] has what recorded pIC50?
OUTPUT: ≥ 7.00

INPUT: Item COC(=O)Nc1cc(-c2cc(-c3cc(NC(=O)c4ccnc(C(C)(C)C#N)c4)cnc3C)ccn2)ccn1 [Example 297] has what recorded pIC50?
OUTPUT: ≥ 7.00

INPUT: Item Cc1ccc(NC(=O)c2ccnc(C(C)(C)C#N)c2)cc1-c1ccnc(-c2ccnc3c2CC(=O)N3)n1 [Example 101] has what recorded pIC50?
OUTPUT: ≥ 7.00

====

- Test system: Miapaca-2 cells
- Test Summary: MiaPaca-2 Combination Cell proliferation Assay (1) with cobimetinib
- Format: cell-based
- Condition Set: MiaPaca-2 cell proliferation, read-out: MiaPaca-2 Combo (1) IC50
pIC50: −log10 of the molar value.
Quantity: pIC50

Use the examples below as a reference point.
INPUT: Item "CNC(=O)c1cc(-c2cc(-c3cc(NC(=O)c4ccnc(C(C)(C)C#N)c4)cnc3C)ccn2)ccn1" has what recorded pIC50?
OUTPUT: ≥ 7.00

INPUT: Item "CC(=O)Nc1cc(-c2cc(-c3cc(NC(=O)c4ccnc(C(C)(C)C#N)c4)ccc3C)nc(C)n2)ccn1" has what recorded pIC50?
OUTPUT: ≥ 7.00

INPUT: Item "Cc1ccc(NC(=O)c2ccnc(C(F)(F)F)c2)cc1-c1cccc(-c2ccnc(NC(=O)CC#N)c2)c1" has what recorded pIC50?
OUTPUT: 6.30 to 7.00

Proceeding to the next molecule to report its pIC50.
INPUT: Item "CNC(=O)c1cc(-c2cc(-c3cc(NC(=O)c4ccnc(C(C)(C)F)c4)ccc3C)ccn2)ccn1" has what recorded pIC50?
OUTPUT: 6.30 to 7.00
